Here the recorded pIC50 is given for each entry.
- Test system: H9C2 cells
- Assay Name: Cytotoxicity on H9C2 cells (MTT)
- Format: cell-based
- Assay Conditions: Rattus norvegicus, 48 h
pIC50: −log10 of the molar value.
Readout Type: pIC50

# Molecule, Target Under Test, Readout Type, Reported Measurement
measured = [
    ("COc1cccc2c1C(=O)c1c(O)c3c(c(O)c1C2=O)C[C@@](O)(C(=O)CO)C[C@@H]3O[C@H]1C[C@H](N)[C@H](O)[C@H](C)O1", "H9C2 cells", "pIC50", 6.80),
    ("COc1ccc2c(c1)C(CCNC(C)=O)=NCC2.O=C(O)C(=O)O", "H9C2 cells", "pIC50", 3.34),
    ("COc1ccc2cccc(CCNC(C)=O)c2c1 [Agomelatine, reference compound]", "H9C2 cells", "pIC50", 3.43),
]

---

- Target Under Test: hERG K^+ channel (Homo sapiens)
- Sequence (Q12809 whole entry): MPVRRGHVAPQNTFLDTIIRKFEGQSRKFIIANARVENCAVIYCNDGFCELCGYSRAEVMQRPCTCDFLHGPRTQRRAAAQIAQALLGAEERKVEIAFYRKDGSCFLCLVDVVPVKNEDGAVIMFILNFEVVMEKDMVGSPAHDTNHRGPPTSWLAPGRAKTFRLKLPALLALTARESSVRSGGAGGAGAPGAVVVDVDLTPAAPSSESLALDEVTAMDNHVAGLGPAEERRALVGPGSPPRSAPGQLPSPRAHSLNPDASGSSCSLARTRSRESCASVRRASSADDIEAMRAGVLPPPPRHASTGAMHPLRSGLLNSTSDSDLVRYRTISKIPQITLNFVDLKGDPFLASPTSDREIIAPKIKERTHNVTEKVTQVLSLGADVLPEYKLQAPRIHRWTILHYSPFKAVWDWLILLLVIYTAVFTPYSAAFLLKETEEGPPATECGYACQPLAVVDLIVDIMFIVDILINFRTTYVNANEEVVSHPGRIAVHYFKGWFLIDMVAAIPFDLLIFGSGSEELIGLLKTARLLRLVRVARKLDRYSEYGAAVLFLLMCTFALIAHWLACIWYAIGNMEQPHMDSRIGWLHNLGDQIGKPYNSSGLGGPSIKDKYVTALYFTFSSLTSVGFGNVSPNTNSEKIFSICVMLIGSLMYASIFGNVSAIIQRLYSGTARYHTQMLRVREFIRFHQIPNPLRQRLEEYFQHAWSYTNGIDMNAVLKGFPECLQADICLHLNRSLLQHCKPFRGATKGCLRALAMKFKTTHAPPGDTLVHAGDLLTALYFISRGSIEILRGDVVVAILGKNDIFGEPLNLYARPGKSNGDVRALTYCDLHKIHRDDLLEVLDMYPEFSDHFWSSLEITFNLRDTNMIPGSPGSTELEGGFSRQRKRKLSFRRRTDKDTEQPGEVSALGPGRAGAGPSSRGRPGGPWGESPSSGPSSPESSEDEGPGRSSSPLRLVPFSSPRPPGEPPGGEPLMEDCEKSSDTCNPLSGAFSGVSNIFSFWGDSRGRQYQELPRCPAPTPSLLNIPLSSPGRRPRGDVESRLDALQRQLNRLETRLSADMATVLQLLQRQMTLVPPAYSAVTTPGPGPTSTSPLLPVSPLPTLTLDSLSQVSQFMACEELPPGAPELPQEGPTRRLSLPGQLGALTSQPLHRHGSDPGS
- Assay Name: hERG K+ channel inhibition (QPatch)
- Assay Conditions: hERG-expressing CHO cells, Qpatch 16X assay
Readout Type: IC50

# Compound, Readout Type, Reported Measurement
measured = [
    ("COc1ccc2c(c1)C(CCNC(C)=O)=NCC2.O=C(O)C(=O)O [6a-1]", "IC50", "> 40 µM"),
]

---

- System: HEK293 cells
- Assay Name: Cytotoxicity on HEK293 cells (MTT)
- Type: cell-based, human
- Assay Conditions: Homo sapiens, HEK293, 100μM, after treatment; read-out: IR (inhibitory rate) HEK293
Measured inhibition at 100 µM values are reported for all entries that follow.
Readout Type: inhibition at 100 µM (%)

# Compound, Reported Measurement
measured = [
    ("COc1ccc2c(c1)C(CCNC(=O)c1ccccc1Cl)=NCC2", 27.4),
    ("COc1ccc2c(c1)C(CCNC(=O)NC1CC1)=NCC2.O=C(O)C(=O)O", 19.5),
    ("COc1ccc2c(c1)C(CCNC(=O)c1ccc(C(C)C)cc1)=NCC2", 57.6),
    ("COc1ccc2c(c1)C(CCNC(=O)Nc1ccc(CC#N)cc1)=NCC2.O=C(O)C(=O)O", 47.8),
    ("COc1ccc2c(c1)C(CCNC(=O)c1cncc(Br)c1)=NCC2.O=C(O)C(=O)O", 29.5),
    ("COc1ccc2c(c1)C(CCNC(=O)Nc1ccc(Cl)cc1[N+](=O)[O-])=NCC2", 52),
    ("COc1ccc2c(c1)C(CCNC(=O)c1cc(C(F)(F)F)ccc1Br)=NCC2.O=C(O)C(=O)O", 58.5),
    ("COc1ccc2c(c1)C(CCNC(=O)c1ccco1)=NCC2", 60.1),
    ("COc1ccc2cccc(CCNC(C)=O)c2c1 [Agomelatine, reference compound]", 47.5),
]

---

- Assay Name: PAMPA-BBB permeation assay
- Type: in vitro ADME
- Assay Conditions: Pe ± SD (n = 3), 18 hours, pH 7.4
# reported Papp at 18 h, 100 μg/mL; entries follow

# Compound, Papp at 18 h, 100 μg/mL
measured = [
    ("COc1ccc2cccc(CCNC(C)=O)c2c1 [Agomelatine, reference compound]", "17.8 ×10⁻⁶ cm/s"),
    ("COc1ccc2c(c1)C(CCNC(C)=O)=NCC2.O=C(O)C(=O)O [6a-1]", "16.7 ×10⁻⁶ cm/s"),
]
